# TGT: Gelatinase (MMP-2) (Homo sapiens)
# Sequence (P08253 110-660, species assumed): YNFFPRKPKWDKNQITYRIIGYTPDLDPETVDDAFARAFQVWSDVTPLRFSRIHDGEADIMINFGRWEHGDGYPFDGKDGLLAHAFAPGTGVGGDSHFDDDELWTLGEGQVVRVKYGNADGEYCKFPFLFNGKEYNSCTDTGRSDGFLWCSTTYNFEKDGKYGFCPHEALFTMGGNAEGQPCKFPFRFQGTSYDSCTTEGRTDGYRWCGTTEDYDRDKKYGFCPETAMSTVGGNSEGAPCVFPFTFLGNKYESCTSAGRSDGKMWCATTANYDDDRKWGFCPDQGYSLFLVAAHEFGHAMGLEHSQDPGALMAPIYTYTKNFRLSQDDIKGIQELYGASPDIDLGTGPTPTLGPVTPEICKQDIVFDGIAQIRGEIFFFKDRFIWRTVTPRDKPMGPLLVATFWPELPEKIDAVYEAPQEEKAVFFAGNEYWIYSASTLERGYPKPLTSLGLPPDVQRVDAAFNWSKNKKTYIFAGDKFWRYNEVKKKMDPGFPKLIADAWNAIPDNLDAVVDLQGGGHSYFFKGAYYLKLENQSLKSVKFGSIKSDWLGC
# PROTOCOL_NOTES: Gelatinase (MMP-2) inhibitory activity, fluorogenic peptide substrate cleavage
# Type: biochemical
# CONDITIONS_USED: read-out: MMP02 IC50
PROPERTY_LABEL: IC50 (µM)
Provide only the numeric value, understood in µM.

Reference set, count: 2
[
  {
    "COMPOUND": "NS(=O)(=O)c1cccc(C(=O)c2ccc3c(-c4ccnc(CCCN5CCOCC5)c4)c[nH]c3c2)c1 [Example 14]",
    "UNIT_ANNOTATION": "µM",
    "IC50": 0.8
  },
  {
    "COMPOUND": "NS(=O)(=O)c1cc(C(=O)c2ccc(O)c(F)c2)ccc1Cl [Example 47]",
    "UNIT_ANNOTATION": "µM",
    "IC50": 17.3
  }
]

Input line: Can you look up the measured IC50 of NS(=O)(=O)c1cc(C(=O)c2ccc(O)cc2)ccc1Cl [Example 15] for me?
Output line: 5.16
